Molecular target: M5 muscarinic receptor (Homo sapiens)
Sequence (P08912 whole entry): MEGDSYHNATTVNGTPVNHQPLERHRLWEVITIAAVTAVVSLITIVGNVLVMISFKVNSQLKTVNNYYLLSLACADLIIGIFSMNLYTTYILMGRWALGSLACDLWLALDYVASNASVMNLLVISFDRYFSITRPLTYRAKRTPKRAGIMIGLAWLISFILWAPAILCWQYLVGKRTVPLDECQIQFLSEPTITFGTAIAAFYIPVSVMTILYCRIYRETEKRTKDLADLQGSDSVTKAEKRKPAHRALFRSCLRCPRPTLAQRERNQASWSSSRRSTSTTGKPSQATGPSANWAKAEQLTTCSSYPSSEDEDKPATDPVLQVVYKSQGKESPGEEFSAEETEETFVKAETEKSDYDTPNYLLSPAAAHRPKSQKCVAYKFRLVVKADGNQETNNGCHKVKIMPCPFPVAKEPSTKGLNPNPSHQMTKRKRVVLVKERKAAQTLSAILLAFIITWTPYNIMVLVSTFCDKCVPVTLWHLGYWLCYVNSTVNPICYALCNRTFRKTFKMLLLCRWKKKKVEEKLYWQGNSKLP
Assay: accumulation of IPX, M5 CHO cells (M5Gq)
Assay type: cell-based
Design: host or cells: CHO cells, stably transfected
measurementLabel: pKd
In simple prose, pKd is minus the logarithm base ten of a concentration in moles per litre.

Please supply the value of reported pKd for the item O=C1CCCN1CC#CCN1CCCC1 [oxotremorine, reference compound]
6.60

Please supply the value of reported pKd for the item C[N+]1(Cc2ccc(Cl)s2)CC=CCC1.[I-] (centres unmarked)
4.90

---

Molecular target: M3 muscarinic receptor (Homo sapiens)
Experiment: [3H]NMS competition binding, M3 CHO membranes
Parameters: host or cells: CHO cells, stably transfected
Settings: competition with 1 nM [3H]NMS; read-out: Inhibition constants (Ki) as negative logarithms, M3 (converted)
measurementLabel: Ki (µM)
Numeric answer only, unit µM assumed.

Using known records, supply Ki for Cc1ccc(C[N+]2(C)CC=CCC2)s1.[I-] (centres unmarked) [Compound 7B]
5.25

Using the record for Brc1ccc(CN2CC=CCC2)s1.Cl [Compound 6C] , state its measured Ki.
14.1

Provide only the value of recorded Ki for C1=CCN(Cc2cccs2)CC1.Cl [Compound 6A]
37.2

# return recorded Ki for input Cc1csc(CN2CC=CCC2)c1.Cl [Compound 6E]
50.1

Identify measured Ki associated with C[N+]1(Cc2ccc(Br)s2)CC=CCC1.[I-] (centres unmarked) [Compound 7C]
2.04

Report Ki for C[N+]1(Cc2cccs2)CC=CCC1.[I-] (centres unmarked) [Compound 7A]
7.94

Supply Ki value. Item: C[N+]1(Cc2ccc(Cl)s2)CC=CCC1.[I-] (centres unmarked) [Compound 7D]
3.39

Dear colleague, please send me the reported Ki for Cc1ccc(CN2CC=CCC2)s1.Cl [Compound 6B] when you can.
22.9

---

Biological target: M3 muscarinic receptor (Homo sapiens, UniProt P20309)
Sequence (P20309 whole entry): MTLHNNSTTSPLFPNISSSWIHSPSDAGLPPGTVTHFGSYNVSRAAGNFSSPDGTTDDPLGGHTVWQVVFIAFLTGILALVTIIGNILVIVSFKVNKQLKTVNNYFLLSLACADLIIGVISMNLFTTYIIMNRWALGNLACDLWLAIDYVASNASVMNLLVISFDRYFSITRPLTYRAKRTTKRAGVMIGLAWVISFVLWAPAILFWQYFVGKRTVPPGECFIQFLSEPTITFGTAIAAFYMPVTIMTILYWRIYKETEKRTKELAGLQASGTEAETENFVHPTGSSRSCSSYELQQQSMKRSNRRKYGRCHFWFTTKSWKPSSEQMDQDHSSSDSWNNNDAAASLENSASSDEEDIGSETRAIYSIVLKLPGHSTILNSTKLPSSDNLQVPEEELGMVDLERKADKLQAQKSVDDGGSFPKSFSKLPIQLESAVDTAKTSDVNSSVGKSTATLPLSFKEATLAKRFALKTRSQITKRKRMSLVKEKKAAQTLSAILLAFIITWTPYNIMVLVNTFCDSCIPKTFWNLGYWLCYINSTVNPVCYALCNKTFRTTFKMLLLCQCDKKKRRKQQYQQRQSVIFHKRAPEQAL
Assay: accumulation of IPX, M3 CHO cells (M3Gq)
Type: cell-based
Set-up: host or cells: CHO cells, stably transfected
Conditions: M3 (↑IPX), preferential response, to carbachol; Tables 2, 3, 7
Give measured Δlog(τ/KA) for each item. Keep answers brief.

For the molecule Cc1ccc(CN2CC=CCC2)s1.Cl , give its reported Δlog(τ/KA).
3.24 ± 0.34

For the molecule C1=CCN(Cc2cccs2)CC1.Cl , give its reported Δlog(τ/KA).
2.23 ± 0.23

Determine its reported Δlog(τ/KA): Cc1ccc(C[N+]2(C)CC=CCC2)s1.[I-] (centres unmarked)
2.11 ± 0.12

# return recorded Δlog(τ/KA) for input Brc1ccc(CN2CC=CCC2)s1.Cl
2.53 ± 0.33

In one line, give reported Δlog(τ/KA) of the entry C[N+]1(Cc2cccs2)CC=CCC1.[I-] (centres unmarked) .
1.94 ± 0.20

---

Target: UniProt P08172
Sequence (P08172 whole entry): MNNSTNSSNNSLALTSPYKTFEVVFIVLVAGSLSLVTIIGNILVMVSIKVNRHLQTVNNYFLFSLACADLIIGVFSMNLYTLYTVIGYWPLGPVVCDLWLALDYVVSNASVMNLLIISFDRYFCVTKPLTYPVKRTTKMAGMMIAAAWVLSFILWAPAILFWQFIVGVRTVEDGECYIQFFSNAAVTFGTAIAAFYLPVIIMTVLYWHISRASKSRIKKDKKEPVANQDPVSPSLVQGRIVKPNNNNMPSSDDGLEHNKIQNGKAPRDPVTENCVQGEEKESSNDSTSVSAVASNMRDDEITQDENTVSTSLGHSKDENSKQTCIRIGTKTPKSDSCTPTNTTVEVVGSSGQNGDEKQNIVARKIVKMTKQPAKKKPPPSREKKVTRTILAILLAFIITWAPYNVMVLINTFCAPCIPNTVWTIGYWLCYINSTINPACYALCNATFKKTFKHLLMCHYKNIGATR
Experiment: inhibition of forskolin-stimulated cAMP, M2 CHO cells (M2Gi)
Type: cell-based
Set-up: host or cells: CHO cells, stably transfected
Conditions: M2 (↓cAMP), preferential response, Table 7; operational efficacy
measurementLabel: τ
Just the number, please.

Please indicate τ recorded for C[N+]1(Cc2ccc(Cl)s2)CC=CCC1.[I-] (centres unmarked) [Compound 7D]
0.83

Find the measured τ of C[N+]1(Cc2cccs2)CC=CCC1.[I-] (centres unmarked) [Compound 7A] and report it.
1.51

Give me measured τ, please, for this molecule: Brc1ccc(CN2CC=CCC2)s1.Cl [Compound 6C]
0.38

State its τ for this molecule: C[N+]1(Cc2ccc(Br)s2)CC=CCC1.[I-] (centres unmarked) [Compound 7C]
0.76

Return value of τ for input C1=CCN(Cc2cccs2)CC1.Cl [Compound 6A] , no commentary.
1.32

Note τ for the molecule shown: Cc1ccc(CN2CC=CCC2)s1.Cl [Compound 6B]
1.15

Query τ for O=C1CCCN1CC#CCN1CCCC1 [oxotremorine, reference compound]
0.96

Output measured τ for this item: Cc1ccc(C[N+]2(C)CC=CCC2)s1.[I-] (centres unmarked) [Compound 7B]
0.69
